Data credit: a melting point compilation (Tetko et al.)

attribute measured: melting point (°C)
Respond numerically; units are °C and should not be typed.

Worked set:
- compound: "O=C(c1ccc(Br)cc1)c1noc(-c2ccc(Br)cc2)c1S(=O)(=O)c1ccccc1"
  attribute measured: "melting point"
  experimental value: 155
- compound: "CN(C)CC(O)c1ccc(O)c(O)c1 (stereo not given)"
  attribute measured: "melting point"
  experimental value: 149
- compound: "CCN(CC)CCN1C(=O)CN=C(c2ccccc2F)c2cc(Cl)ccc21"
  attribute measured: "melting point"
  experimental value: 79.5

Enquiry: If you can, please state the reported melting point value of OC(c1ccc(F)cc1)(c1cncnc1)c1ccccc1Cl (stereo not given) .
Return: 126
